Biological target: Human plasma kallikrein (Homo sapiens)
Construct: yields a heavy chain (371 amino acids) and a light chain (248 amino acids)
Test: Plasma Kallikrein Assay
Details: purified Human plasma kallikrein 0.5 nM, substrate Acetyl-K-P-R-AFC, pH 7.4
pIC50: −log10 of the molar value.
Criterion: pIC50 meeting or surpassing 8. Met: Y. Not met: N.

MOLECULE	TESTED_ON	CLASS_NAME
CC(c1ccc(N2CCC2)nc1)n1cc(NC(=O)c2cncc(-c3c(C(F)F)ccc(Cl)c3F)n2)cn1 (single isomer, unassigned) [Example 38]	Human plasma kallikrein (Homo sapiens)	Y
CC(c1cnc(N2CC[C@H]2CN2CC(C(C)(C)O)C2)nc1)n1cc(NC(=O)c2cncc(-c3c(C(F)F)ccc(Cl)c3F)n2)cn1 (stereo partly shown)	Human plasma kallikrein (Homo sapiens)	Y
CC(c1cnc(N2CC3(CC3)C2)nc1)n1cc(NC(=O)c2cncc(-c3c(C(F)F)ccc(Cl)c3F)n2)cn1 (stereo not shown) [Example 99]	Human plasma kallikrein (Homo sapiens)	N
CC(c1ccc(N2CCC2)nc1)n1cc(NC(=O)c2cncc(-c3c(C(F)F)ccc(Cl)c3F)n2)cn1 (single isomer, unassigned) [Example 37]	Human plasma kallikrein (Homo sapiens)	N
C[C@H](F)CN(C)CC1CCCN1c1ncc(Cn2cc(NC(=O)c3cncc(-c4c(C(F)F)ccc(Cl)c4F)n3)cn2)cn1 (stereo partly shown)	Human plasma kallikrein (Homo sapiens)	Y
CC(c1cnc(N2CCC[C@@H]2C(N)=O)nc1)n1cc(NC(=O)c2cncc(-c3c(C(F)F)ccc(Cl)c3F)n2)cn1 (mixture of isomers)	Human plasma kallikrein (Homo sapiens)	N
CC(c1cnc(N2CC[C@H]2[C@@H](C)N2C[C@@H](O)[C@@H](O)C2)nc1)n1cc(NC(=O)c2cncc(-c3c(C(F)F)ccc(Cl)c3F)n2)cn1 (stereo partly shown)	Human plasma kallikrein (Homo sapiens)	Y
COc1ccc(C(F)F)c(-c2cncc(C(=O)Nc3cnn(Cc4cnc(N5CCC5)nc4)c3)n2)c1F	Human plasma kallikrein (Homo sapiens)	N
Cn1cnc(C2CCCN2c2ccc(Cn3cc(NC(=O)c4cncc(-c5c(C(F)F)ccc(Cl)c5F)n4)cn3)cn2)n1 (stereo not shown)	Human plasma kallikrein (Homo sapiens)	N
C[C@H](c1cnc(N2CCC2)nc1)n1cc(NC(=O)c2cncc(-c3c(C(F)(F)F)ccc(Cl)c3F)n2)cn1 (single isomer, unassigned)	Human plasma kallikrein (Homo sapiens)	N
CC(C)(O)CC1CCCN1c1ncc(Cn2cc(NC(=O)c3cncc(-c4c(C(F)F)ccc(Cl)c4F)n3)cn2)cn1 (single isomer, unassigned) [Example 110]	Human plasma kallikrein (Homo sapiens)	N
CC(c1cnc(N2CCC2)nc1)n1cc(NC(=O)c2cncc(-c3c(Br)ccc(Cl)c3F)n2)cn1 (stereo not shown)	Human plasma kallikrein (Homo sapiens)	N

###

# IC50 measurements, system: UniProt:P03951
# Sequence (P03951 388-625 limits assumed): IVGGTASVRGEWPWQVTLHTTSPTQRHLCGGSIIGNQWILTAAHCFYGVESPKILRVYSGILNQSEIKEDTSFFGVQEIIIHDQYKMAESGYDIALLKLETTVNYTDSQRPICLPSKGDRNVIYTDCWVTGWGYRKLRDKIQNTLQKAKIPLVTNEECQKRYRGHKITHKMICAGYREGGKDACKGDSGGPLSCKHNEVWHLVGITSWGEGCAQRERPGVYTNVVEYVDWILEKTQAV
# Sequence (P03951 19-387 partner limits assumed): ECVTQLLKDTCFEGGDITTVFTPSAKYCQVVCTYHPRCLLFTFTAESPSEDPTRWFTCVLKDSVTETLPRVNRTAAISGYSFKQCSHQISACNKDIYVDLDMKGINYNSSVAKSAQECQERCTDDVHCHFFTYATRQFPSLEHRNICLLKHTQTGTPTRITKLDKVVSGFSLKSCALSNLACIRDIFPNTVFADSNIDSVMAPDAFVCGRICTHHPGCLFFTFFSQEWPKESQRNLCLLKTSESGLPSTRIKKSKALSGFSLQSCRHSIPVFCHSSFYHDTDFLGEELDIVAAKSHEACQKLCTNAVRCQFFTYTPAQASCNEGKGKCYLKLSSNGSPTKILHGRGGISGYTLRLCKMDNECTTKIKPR

MOLECULE	SCALE_UNIT	IC50
C[C@H](F)CN(C)CC1CCCN1c1ncc(Cn2cc(NC(=O)c3cncc(-c4c(C(F)F)ccc(Cl)c4F)n3)cn2)cn1 (some centres unmarked)	µM	5.5
Cc1cc(N2CCC2)ncc1[C@H](C)n1cc(NC(=O)c2cncc(-c3c(C(F)F)ccc(Cl)c3F)n2)cn1 (single isomer, unassigned)	µM	0.639
CC(c1cnc(N2CCC2)nc1)n1cc(NC(=O)c2cncc(-c3c(OC(F)F)ccc(Cl)c3F)n2)cn1 (single isomer, unassigned) [Example 56]	µM	1.49
CC(c1cnc(N2CC[C@H]2CN2C[C@@H](O)[C@@H](O)C2)nc1)n1cc(NC(=O)c2cncc(-c3c(C(F)F)ccc(Cl)c3F)n2)cn1 (some centres unmarked)	µM	5.82
O=C(Nc1cnn(Cc2cnc(N3CCCC3CCO)nc2)c1)c1cncc(-c2c(C(F)F)ccc(Cl)c2F)n1 (single isomer, unassigned)	µM	3.38
NCC1CCCN1c1ncc(Cn2cc(NC(=O)c3cncc(-c4c(C(F)F)ccc(Cl)c4F)n3)cn2)cn1 (centres unmarked)	µM	3.94
O=C(Nc1cnn(Cc2cnc(N3CCC[C@H]3CN3CC[C@@H](O)C3)nc2)c1)c1cncc(-c2c(C(F)F)ccc(Cl)c2F)n1	µM	2.17
CN(CC1CCCN1c1ncc(Cn2cc(NC(=O)c3cncc(-c4c(C(F)F)ccc(Cl)c4F)n3)cn2)cn1)CC1(O)CC1 (single isomer, unassigned) [Example 140]	µM	1.29
O=C(Nc1cnn(Cc2cnc(N3CCC3)nc2C2CC2)c1)c1cncc(-c2c(C(F)F)ccc(Cl)c2F)n1	µM	4.37
CC(c1cnc(N2CC(F)(F)C2)nc1)n1cc(NC(=O)c2cncc(-c3c(C(F)F)ccc(Cl)c3F)n2)cn1 (centres unmarked)	µM	6.01
CC(c1cnc(N2CC3CC3C2)nc1)n1cc(NC(=O)c2cncc(-c3c(C(F)F)ccc(Cl)c3F)n2)cn1 (single isomer, unassigned)	µM	2.72

###

Molecular target: Human plasma kallikrein (Homo sapiens, UniProt P03952)
Construct: yields a heavy chain (371 amino acids) and a light chain (248 amino acids)
Sequence (P03952 391-638 limits assumed): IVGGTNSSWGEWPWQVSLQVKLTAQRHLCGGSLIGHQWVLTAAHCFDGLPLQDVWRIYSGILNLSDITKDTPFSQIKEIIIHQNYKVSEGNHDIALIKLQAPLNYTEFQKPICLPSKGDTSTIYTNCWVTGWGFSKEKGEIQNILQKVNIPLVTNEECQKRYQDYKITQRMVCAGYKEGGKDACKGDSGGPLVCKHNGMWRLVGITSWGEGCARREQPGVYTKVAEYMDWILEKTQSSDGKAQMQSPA
Sequence (P03952 20-390 partner limits assumed): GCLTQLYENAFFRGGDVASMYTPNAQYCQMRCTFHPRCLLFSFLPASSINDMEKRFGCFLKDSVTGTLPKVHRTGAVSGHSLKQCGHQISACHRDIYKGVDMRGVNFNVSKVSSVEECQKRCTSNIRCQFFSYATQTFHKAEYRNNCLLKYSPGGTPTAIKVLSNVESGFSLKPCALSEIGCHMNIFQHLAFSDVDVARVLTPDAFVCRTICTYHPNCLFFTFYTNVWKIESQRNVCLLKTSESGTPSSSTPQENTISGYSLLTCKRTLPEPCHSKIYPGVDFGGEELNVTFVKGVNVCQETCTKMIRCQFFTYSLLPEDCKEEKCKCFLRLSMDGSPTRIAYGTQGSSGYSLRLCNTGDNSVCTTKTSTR
Experiment: Plasma Kallikrein Assay
Details: purified Human plasma kallikrein 0.5 nM, substrate Acetyl-K-P-R-AFC, pH 7.4
pIC50: −log10 of the molar value.
Criterion: pIC50 meeting or surpassing 8. Met: yes (1). Not met: no (0).

COMPOUND	TESTED_ON	CLASS_NAME
O=C(Nc1cnn(Cc2cnc(N3CCCC3CN3CC[C@H](F)C3)nc2)c1)c1cncc(-c2c(C(F)F)ccc(Cl)c2F)n1 (stereo partly drawn)	Human plasma kallikrein (Homo sapiens, UniProt P03952)	yes (1)
O=C(Nc1cnn(Cc2ccc(N3CCC4OCCC43)nc2)c1)c1cncc(-c2c(C(F)F)ccc(Cl)c2F)n1 (single isomer, unassigned) [Example 122]	Human plasma kallikrein (Homo sapiens, UniProt P03952)	no (0)
Nc1ncc(-c2c(C(F)F)ccc(Cl)c2F)nc1C(=O)Nc1cnn(Cc2cnc(N3CCC3)nc2)c1	Human plasma kallikrein (Homo sapiens, UniProt P03952)	no (0)

###

# key: entry, value: IC50
Molecular target: Human plasma kallikrein (Homo sapiens, UniProt P03952)
Construct: yields a heavy chain (371 amino acids) and a light chain (248 amino acids)
Test: Plasma Kallikrein Assay
Conditions: purified Human plasma kallikrein 0.5 nM, substrate Acetyl-K-P-R-AFC, pH 7.4
MEASURED_PROPERTY: IC50 (µM)

MOLECULE	MEASURED_PROPERTY	MEASURED_VALUE
CC(N)C1CCCN1c1ncc(Cn2cc(NC(=O)c3cncc(-c4c(C(F)F)ccc(Cl)c4F)n3)cn2)cn1 (single isomer, unassigned) [Example 156]	IC50	0.0073
CC(c1cnc(N(CCO)Cc2ccccn2)nc1)n1cc(NC(=O)c2cncc(-c3c(C(F)F)ccc(Cl)c3F)n2)cn1 (stereo not shown) [Example 85]	IC50	0.0118
O=C(Nc1cnn(Cc2cnc(N3CCC3)nc2CO)c1)c1cncc(-c2c(C(F)F)ccc(Cl)c2F)n1 [Example 2]	IC50	0.0158
CN(C)CCN(CCO)c1ncc(Cn2cc(NC(=O)c3cncc(-c4c(C(F)F)ccc(Cl)c4F)n3)cn2)cn1 [Example 88]	IC50	0.0149

###

# key: entry, value: IC50
Molecular target: Human plasma kallikrein (Homo sapiens, UniProt P03952)
Construct: yields a heavy chain (371 amino acids) and a light chain (248 amino acids)
Assay: Plasma Kallikrein Assay
Conditions: purified Human plasma kallikrein 0.5 nM, substrate Acetyl-K-P-R-AFC, pH 7.4

MOLECULE	TESTED_ON	IC50, nM
O=C(Nc1cnn(Cc2cnc(N3CC4CC4C3CO)nc2)c1)c1cncc(-c2c(C(F)F)ccc(Cl)c2F)n1 (single isomer, unassigned) [Example 79]	Human plasma kallikrein (Homo sapiens, UniProt P03952)	5.9
C[C@@H](c1cnc(N2C[C@@H]3C[C@@H]3[C@@H]2CO)nc1)n1cc(NC(=O)c2cncc(-c3c(C(F)F)ccc(Cl)c3F)n2)cn1 (single isomer, unassigned) [Example 86]	Human plasma kallikrein (Homo sapiens, UniProt P03952)	13.3
Cc1ncc(-c2c(C(F)F)ccc(Cl)c2F)nc1C(=O)Nc1cnn(Cc2cnc(N3CC(F)(F)C3)c(C)n2)c1	Human plasma kallikrein (Homo sapiens, UniProt P03952)	6.2
